# Subject of test: human CCR10 (Homo sapiens)
# Construct: expressed in transfected cells
# Sequence (P46092 1-362): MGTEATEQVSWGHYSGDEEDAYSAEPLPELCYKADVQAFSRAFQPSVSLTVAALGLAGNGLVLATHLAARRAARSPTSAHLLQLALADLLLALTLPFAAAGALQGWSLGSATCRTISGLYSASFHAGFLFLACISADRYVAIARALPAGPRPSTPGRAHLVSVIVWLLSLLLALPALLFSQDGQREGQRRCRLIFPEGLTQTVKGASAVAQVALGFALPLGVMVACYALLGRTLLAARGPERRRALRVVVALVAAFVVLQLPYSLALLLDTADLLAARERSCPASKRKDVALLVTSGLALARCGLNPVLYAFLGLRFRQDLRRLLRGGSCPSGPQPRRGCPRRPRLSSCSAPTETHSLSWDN
# Test protocol: Calcium flux assay (CCR10 antagonism, CCL27 as agonist)
# Assay type: cell-based
# Cond: CCR10 transfected 300-19 murine pre-B cells; CCL27 30 nM
Square brackets hold non-standard residues; d marks the D form. Peptide text beside a SMILES is read from it. * marks the point of attachment. Oic = O=C(O)[C@@H]1C[C@@H]2CCCC[C@@H]2N1; Phe(4-CN) = N#Cc1ccc(C[C@H](N)C(=O)O)cc1; Hyp = O=C(O)[C@@H]1C[C@@H](O)CN1; Tic = O=C(O)[C@@H]1Cc2ccccc2CN1; Benzyl(4-Br) = Brc1ccc(C*)cc1; Ac5c = NC1(C(=O)O)CCCC1; Dab = NCC[C@H](N)C(=O)O; dAze = O=C(O)[C@H]1CCN1; Aib = CC(C)(N)C(=O)O; Bn = c1ccc(C*)cc1
Note to self: use 1 (yes) only for IC50 readings below 200 nM; a reading exactly at 200 nM still gets 0 (no).

Compound: NCC[C@@H]1NC(=O)[C@H](Cc2c[nH]c3ccccc23)NC(=O)C2(CCCC2)NC(=O)[C@H](Cc2c[nH]c3ccccc23)NC(=O)[C@@H]2C[C@@H](O)CN2C(=O)[C@H]2CCCN2C1=O [Ex. 103, cyclo(-Trp-Cyp-Trp-Dab-^DPro-Hyp-)] (cyclo([Ac5c]W[Dab][dP][Hyp]W))
Subject of test: human CCR10 (Homo sapiens)
Assigned category: 1 (yes)
--
Compound: O=C1NC2(CCCC2)C(=O)N[C@@H](Cc2c[nH]c3ccccc23)C(=O)N[C@@H](CO)C(=O)N2CCC[C@@H]2C(=O)N2C[C@H](OCc3ccccc3)C[C@H]2C(=O)N[C@H]1Cc1c[nH]c2ccccc12 [compound 46, cyclo(-Trp-Cyp-Trp-Ser-^DPro-Hyp(Bn)-)] (cyclo([Ac5c]WS[dP][Hyp](Bn)W))
Subject of test: human CCR10 (Homo sapiens)
Assigned category: 1 (yes)
--
Compound: N#Cc1ccc(C[C@@H]2NC(=O)[C@@H]3C[C@@H](OCc4ccc(Br)cc4)CN3C(=O)[C@H]3CCCN3C(=O)[C@H](CO)NC(=O)[C@H](Cc3c[nH]c4ccccc34)NC(=O)C3(CCCC3)NC2=O)cc1 [compound 55] (cyclo([Ac5c]WS[dP][Hyp](Benzyl(4-Br))[Phe(4-CN)]))
Subject of test: human CCR10 (Homo sapiens)
Assigned category: 1 (yes)
--
Compound: N#Cc1ccc(C[C@@H]2NC(=O)[C@@H]3C[C@@H](OCc4ccccc4)CN3C(=O)[C@H]3CCCN3C(=O)[C@H](CCN)NC(=O)[C@H](Cc3c[nH]c4ccccc34)NC(=O)C3(CCCC3)NC2=O)cc1 [compound 49] (cyclo([Ac5c]W[Dab][dP][Hyp](Bn)[Phe(4-CN)]))
Subject of test: human CCR10 (Homo sapiens)
Assigned category: 1 (yes)
--
Compound: N=C(N)NCCC[C@@H]1NC(=O)[C@H](Cc2c[nH]c3ccccc23)NC(=O)C2(CCCC2)NC(=O)[C@H](Cc2c[nH]c3ccccc23)NC(=O)[C@@H]2Cc3ccccc3CN2C(=O)[C@H]2CCN2C1=O [Ex. 25, cyclo(-Trp-Cyp-Trp-Arg-^DAze-Tic-)] (cyclo([Ac5c]WR[dAze][Tic]W))
Subject of test: human CCR10 (Homo sapiens)
Assigned category: 1 (yes)
--
Compound: CC1(C)NC(=O)[C@H](Cc2c[nH]c3ccccc23)NC(=O)[C@@H]2Cc3ccccc3CN2C(=O)[C@H]2CCCN2C(=O)[C@H](CCCNC(=N)N)NC(=O)[C@H](Cc2c[nH]c3ccccc23)NC1=O [Ex. 1, cyclo(-Trp-Aib-Trp-Arg-^DPro-Tic-)] (cyclo([Aib]WR[dP][Tic]W))
Subject of test: human CCR10 (Homo sapiens)
Assigned category: 0 (no)
--
Compound: NCC[C@H](N)C(=O)NCC[C@@H]1NC(=O)[C@H](Cc2c[nH]c3ccccc23)NC(=O)C2(CCCC2)NC(=O)[C@H](Cc2c[nH]c3ccccc23)NC(=O)[C@@H]2C[C@@H]3CCCC[C@@H]3N2C(=O)[C@H]2CCCN2C1=O [Ex. 71, cyclo(-Trp-Cyp-Trp-Dab(Dab)-^DPro-Oic-)] (cyclo([Ac5c]W[Dab](Dab)[dP][Oic]W))
Subject of test: human CCR10 (Homo sapiens)
Assigned category: 0 (no)
